TARGET UNDER TEST: PDE3B (Homo sapiens, UniProt Q13370)
Sequence (Q13370 whole entry, canonical isoform): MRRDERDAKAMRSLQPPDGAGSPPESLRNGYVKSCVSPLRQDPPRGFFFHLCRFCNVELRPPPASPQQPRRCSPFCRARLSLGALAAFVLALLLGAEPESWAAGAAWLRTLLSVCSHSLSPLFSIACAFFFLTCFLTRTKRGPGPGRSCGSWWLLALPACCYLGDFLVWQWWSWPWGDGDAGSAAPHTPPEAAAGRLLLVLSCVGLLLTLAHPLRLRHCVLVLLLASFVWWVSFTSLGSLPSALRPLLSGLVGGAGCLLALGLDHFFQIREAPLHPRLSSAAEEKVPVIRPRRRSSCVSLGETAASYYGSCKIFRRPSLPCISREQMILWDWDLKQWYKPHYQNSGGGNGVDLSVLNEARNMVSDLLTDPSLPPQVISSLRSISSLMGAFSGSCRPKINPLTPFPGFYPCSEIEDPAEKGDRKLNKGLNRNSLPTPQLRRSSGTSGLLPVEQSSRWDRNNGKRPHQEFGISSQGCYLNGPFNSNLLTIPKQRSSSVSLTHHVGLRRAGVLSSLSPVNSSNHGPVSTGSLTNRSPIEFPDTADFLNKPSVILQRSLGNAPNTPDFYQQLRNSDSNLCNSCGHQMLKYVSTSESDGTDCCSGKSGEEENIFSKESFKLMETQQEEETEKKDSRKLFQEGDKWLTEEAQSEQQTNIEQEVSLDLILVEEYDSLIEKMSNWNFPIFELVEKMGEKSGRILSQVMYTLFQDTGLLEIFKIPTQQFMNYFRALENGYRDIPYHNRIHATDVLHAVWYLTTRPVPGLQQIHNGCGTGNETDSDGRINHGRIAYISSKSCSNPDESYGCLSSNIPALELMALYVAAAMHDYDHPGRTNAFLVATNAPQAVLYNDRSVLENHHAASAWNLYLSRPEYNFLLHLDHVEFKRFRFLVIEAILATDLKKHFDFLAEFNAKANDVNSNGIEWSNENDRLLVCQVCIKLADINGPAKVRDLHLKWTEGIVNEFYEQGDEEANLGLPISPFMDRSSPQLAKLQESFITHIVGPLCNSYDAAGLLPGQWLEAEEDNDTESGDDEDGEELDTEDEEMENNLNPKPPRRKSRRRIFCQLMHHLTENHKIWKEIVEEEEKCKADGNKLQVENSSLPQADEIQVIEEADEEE
MEASUREMENT DESCRIPTION: PDE isoform selectivity panel: PDE3B
Catalogue of IC50 values
Please give a number only; it is taken to be in µM.

>>> recorded_result("COc1ccc(OC)c(-c2nnc3ccc(-c4ccc(OC)c(O[C@@H]5CCOC5)c4)nn23)c1 [Compound 18]")
2.3

Next compound, IC50 to be filled in.
Ask: Report IC50 from PDE3B (Homo sapiens, UniProt Q13370) testing of COc1ccc(OC)c(-c2nnc3n2N=C(c2ccc(OC)c(O[C@@H]4CCOC4)c2)CS3)c1 [Compound 10]
Reply: 4.6

###

Parameter: pIC50. Scope: all listed entries.
TARGET UNDER TEST: UniProt Q07343
Sequence (Q07343 whole entry, canonical isoform): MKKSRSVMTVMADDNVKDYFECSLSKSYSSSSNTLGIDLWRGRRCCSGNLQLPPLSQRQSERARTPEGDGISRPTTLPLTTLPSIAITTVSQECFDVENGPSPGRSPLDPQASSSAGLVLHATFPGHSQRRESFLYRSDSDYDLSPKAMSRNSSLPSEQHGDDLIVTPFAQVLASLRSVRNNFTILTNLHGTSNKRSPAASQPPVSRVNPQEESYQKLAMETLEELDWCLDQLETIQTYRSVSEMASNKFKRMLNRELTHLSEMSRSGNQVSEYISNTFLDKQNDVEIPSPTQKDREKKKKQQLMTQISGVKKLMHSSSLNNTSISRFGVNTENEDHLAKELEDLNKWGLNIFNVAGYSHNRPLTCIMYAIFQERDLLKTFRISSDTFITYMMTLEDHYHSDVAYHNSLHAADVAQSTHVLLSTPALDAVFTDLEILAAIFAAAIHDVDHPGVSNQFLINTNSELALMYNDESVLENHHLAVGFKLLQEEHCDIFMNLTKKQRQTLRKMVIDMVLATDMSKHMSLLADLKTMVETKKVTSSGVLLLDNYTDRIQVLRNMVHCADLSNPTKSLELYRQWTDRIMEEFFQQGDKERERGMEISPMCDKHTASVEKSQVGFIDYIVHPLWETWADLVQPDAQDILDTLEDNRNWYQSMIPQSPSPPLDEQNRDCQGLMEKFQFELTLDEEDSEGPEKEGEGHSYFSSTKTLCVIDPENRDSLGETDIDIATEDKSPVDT
MEASUREMENT DESCRIPTION: PDE isoform selectivity panel: PDE4B1
pIC50 field: float, defined as -log10 of concentration (mol/L).

>>> recorded_result("COc1ccc(OC)c(-c2nnc3n2N=C(c2ccc(OC)c(O[C@@H]4CCOC4)c2)CS3)c1")
8.64

We next turn to a different molecule, shown below.
Ask: Please supply the value of reported pIC50 for the item COc1ccc(OC)c(-c2nnc3ccc(-c4ccc(OC)c(O[C@@H]5CCOC5)c4)nn23)c1
Reply: 8.39

###

RECORDED ENDPOINT: melting point

Worked set:
>>> recorded_result("COc1ccc(C2=Nn3c(nnc3-c3ccccc3C(F)(F)F)SC2)cc1O[C@@H]1CCOC1")
"199 to 200 °C"
>>> recorded_result("COc1ccc(C2=Nn3c(nnc3-c3ccccc3C(F)(F)F)SC2)cc1OCC1CC1")
"166 °C (dec.)"
>>> recorded_result("COc1ccc(C2=Nn3c(nnc3-c3ccccc3C(F)(F)F)SC2)cc1OC1CCOC1 (stereo not shown)")
"186 °C (dec.)"

Turning now to a further record.
Ask: Read the entry COc1ccc(C2=Nn3c(nnc3-c3ccccc3F)SC2)cc1OC and write its reported melting point.
Reply: 222 °C (dec.)

Cited source: patent US20110112079A1
